Biological target: GABA-A receptor; alpha-2/beta-3/gamma-2 (Homo sapiens, UniProt P18507+P28472+P47869)
Sequence (P18507 whole entry): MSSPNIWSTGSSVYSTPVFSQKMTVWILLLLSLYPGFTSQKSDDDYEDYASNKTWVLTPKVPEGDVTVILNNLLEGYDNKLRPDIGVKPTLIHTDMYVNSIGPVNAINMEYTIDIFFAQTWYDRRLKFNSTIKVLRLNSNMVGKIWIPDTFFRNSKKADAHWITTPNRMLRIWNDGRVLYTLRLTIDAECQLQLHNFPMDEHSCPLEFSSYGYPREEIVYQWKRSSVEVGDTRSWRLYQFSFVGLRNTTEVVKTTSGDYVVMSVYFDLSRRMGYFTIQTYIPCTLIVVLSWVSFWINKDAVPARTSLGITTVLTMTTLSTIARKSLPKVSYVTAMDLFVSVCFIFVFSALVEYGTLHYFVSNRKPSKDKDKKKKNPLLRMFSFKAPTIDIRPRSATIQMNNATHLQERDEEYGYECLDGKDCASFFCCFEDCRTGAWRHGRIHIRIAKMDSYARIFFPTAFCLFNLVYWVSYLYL
Sequence (P28472 whole entry): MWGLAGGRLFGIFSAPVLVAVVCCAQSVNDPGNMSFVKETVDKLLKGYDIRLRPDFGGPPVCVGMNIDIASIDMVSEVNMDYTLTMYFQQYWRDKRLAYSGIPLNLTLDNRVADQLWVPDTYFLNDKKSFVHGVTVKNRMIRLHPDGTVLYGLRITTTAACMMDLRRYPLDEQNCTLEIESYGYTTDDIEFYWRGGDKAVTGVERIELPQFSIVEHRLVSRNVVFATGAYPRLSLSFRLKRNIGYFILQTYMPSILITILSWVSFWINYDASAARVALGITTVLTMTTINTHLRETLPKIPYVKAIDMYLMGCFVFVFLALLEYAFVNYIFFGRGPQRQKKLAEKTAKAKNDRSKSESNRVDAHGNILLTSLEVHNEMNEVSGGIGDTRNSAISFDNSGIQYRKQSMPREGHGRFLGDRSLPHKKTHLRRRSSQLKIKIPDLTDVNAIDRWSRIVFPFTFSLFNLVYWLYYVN
Sequence (P47869 whole entry): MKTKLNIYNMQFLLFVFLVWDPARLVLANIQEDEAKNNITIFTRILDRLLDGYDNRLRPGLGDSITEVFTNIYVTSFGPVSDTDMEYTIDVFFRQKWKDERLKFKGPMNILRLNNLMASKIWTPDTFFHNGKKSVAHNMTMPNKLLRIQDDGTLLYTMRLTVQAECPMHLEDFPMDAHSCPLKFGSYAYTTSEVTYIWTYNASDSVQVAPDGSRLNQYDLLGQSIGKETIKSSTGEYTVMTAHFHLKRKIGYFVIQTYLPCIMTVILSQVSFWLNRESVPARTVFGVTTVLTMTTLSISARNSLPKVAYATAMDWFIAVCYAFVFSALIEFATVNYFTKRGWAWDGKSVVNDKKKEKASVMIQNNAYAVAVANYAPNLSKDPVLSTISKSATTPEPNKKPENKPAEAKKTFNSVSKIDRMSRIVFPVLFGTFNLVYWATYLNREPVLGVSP
Experiment: Displacement of [3H]flumazenil human recombinant alpha2beta3gamma2 GABA(A) receptor expressed in HEK293 cells after 30 mins by glass fiber filtration assay
Conditions: in the assay text read “after 40 mins” for “after 30 mins”
OUTCOME_MEASURE: Ki (nM)

[[record]]
compound_structure_string = "Cc1ccc(-n2nc3c4cc(CCc5ccsc5)ccc4[nH]c(=O)n3c2=O)cc1"
units_symbol = "nM"
test_value = 1.7

[[record]]
compound_structure_string = "Cc1ccc2[nH]c(=O)n3c(=O)n(-c4ccccc4)nc3c2c1"
units_symbol = "nM"
test_value = 1


I: Cc1ccc(-n2nc3c4cc(CCc5cccnc5)ccc4[nH]c(=O)n3c2=O)cc1
II: Cc1ccc(-n2nc3c4cc(CCc5ccccc5)ccc4[nH]c(=O)n3c2=O)cc1
[ask] Could you point out whether the larger Ki belongs to I or to II ? Select an item and report its label.
[reply] II
(II: 65 nM, I: 4.4 nM)

====

Test: Displacement of [3H]flumazenil form benzodiazepine-binding site of GABA(A) receptor in rat cortical membrane after 30 mins by glass fiber filtration assay
Type: cell membranes
Conditions: in the assay text read “after 40 mins” for “after 30 mins”
OUTCOME_MEASURE: Ki (nM)

[[record]]
compound_structure_string = "Cc1ccc(-n2nc3c4cc(Cc5ccsc5)ccc4[nH]c(=O)n3c2=O)cc1"
test_value = 0.23

[[record]]
compound_structure_string = "Cc1ccc(-n2nc3c4cc(CCc5ccsc5)ccc4[nH]c(=O)n3c2=O)cc1"
test_value = 0.94

[[record]]
compound_structure_string = "Cc1ccc(-n2nc3c4cc(CCc5cccc(O)c5)ccc4[nH]c(=O)n3c2=O)cc1"
test_value = 12.4

[[record]]
compound_structure_string = "Cc1ccc(-n2nc3c4cc(CCc5ccncc5)ccc4[nH]c(=O)n3c2=O)cc1"
test_value = 0.17

[[record]]
compound_structure_string = "Cc1ccc(-n2nc3c4cc(Cc5cccc(F)c5)ccc4[nH]c(=O)n3c2=O)cc1"
test_value = 2.1


I: Cc1ccc2[nH]c(=O)n3c(=O)n(-c4ccccc4)nc3c2c1
II: O=c1[nH]c2ccc(Br)cc2c2nn(-c3ccccc3)c(=O)n12
III: Cc1ccc(-n2nc3c4cc(CCC(=O)O)ccc4[nH]c(=O)n3c2=O)cc1
IV: Cc1ccc(-n2nc3c4cc(CCc5ccccc5)ccc4[nH]c(=O)n3c2=O)cc1
[ask] # ascending order, key=Ki Show the ranking through the labels, in the order asked for.
[reply] II, I, III, IV

a: Cc1ccc(-n2nc3c4cc(CCc5ccccn5)ccc4[nH]c(=O)n3c2=O)cc1
b: O=c1[nH]c2ccc(Br)cc2c2nn(-c3ccccc3F)c(=O)n12
c: Cc1ccc(-n2nc3c4cc(CCc5ccc(-c6ccccc6)cc5)ccc4[nH]c(=O)n3c2=O)cc1
[ask] Put the items in order so that reported Ki rises from first to last. // list labels; follow requested order
[reply] b, a, c
(b: 0.2 nM, a: 0.53 nM, c: 1570 nM)

====

Biological target: GABA-A receptor; alpha-5/beta-3/gamma-2 (Homo sapiens, UniProt P18507+P28472+P31644)
Sequence (P18507 whole entry): as the sequence (P18507 whole entry) above
Sequence (P28472 whole entry): as the sequence (P28472 whole entry) above
Sequence (P31644 whole entry): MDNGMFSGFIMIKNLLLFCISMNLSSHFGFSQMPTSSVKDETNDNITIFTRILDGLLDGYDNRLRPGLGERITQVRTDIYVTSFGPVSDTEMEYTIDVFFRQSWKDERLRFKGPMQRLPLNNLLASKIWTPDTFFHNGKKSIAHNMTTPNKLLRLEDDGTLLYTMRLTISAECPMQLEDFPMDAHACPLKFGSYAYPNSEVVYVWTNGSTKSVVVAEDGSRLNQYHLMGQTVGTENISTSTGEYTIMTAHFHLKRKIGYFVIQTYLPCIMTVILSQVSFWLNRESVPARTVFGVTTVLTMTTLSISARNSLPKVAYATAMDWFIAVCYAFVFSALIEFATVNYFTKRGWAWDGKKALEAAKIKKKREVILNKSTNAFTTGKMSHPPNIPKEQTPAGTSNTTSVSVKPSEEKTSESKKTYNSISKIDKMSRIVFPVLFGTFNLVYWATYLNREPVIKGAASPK
Assay: Displacement of [3H]flumazenil human recombinant alpha5beta3gamma2 GABA(A) receptor expressed in HEK293 cells after 30 mins by glass fiber filtration assay
Settings: in the assay text read “after 40 mins” for “after 30 mins”
OUTCOME_MEASURE: Ki (nM)

[[record]]
compound_structure_string = "Cc1ccc(-n2nc3c4cc(CCc5ccsc5)ccc4[nH]c(=O)n3c2=O)cc1"
target_entity = "GABA-A receptor; alpha-5/beta-3/gamma-2 (Homo sapiens, UniProt P18507+P28472+P31644)"
outcome_measure = "Ki"
units_symbol = "nM"
test_value = 3.6


I: Cc1ccc(-n2nc3c4cc(CCc5cccnc5)ccc4[nH]c(=O)n3c2=O)cc1
II: Cc1ccc(-n2nc3c4cc(CCc5ccccc5)ccc4[nH]c(=O)n3c2=O)cc1
[ask] Of the two listed items, I and II , which carries the larger Ki figure? Answer by stating the label of the chosen item.
[reply] II
(II: 66 nM, I: 9.1 nM)
